- TEST NAME: The drug is tested on WLS-170 corresponding to human gut metagenome with ENA study accession number: PRJEB37062 and ENA sample accession number: ERS12561762 for biotransformation under anaerobic condition. The drug concentrations were measured over 9 timepoints collected between 0 and 24 hours of incubation by liquid-chromatography-coupled mass spectrometry (LC–MS); also: call rule not given here
- RECORDED CONDITIONS: 2 µM

COMPOUND | Bacterial Biotransformation
NS(=O)(=O)c1cc2c(cc1Cl)N=C(CSCc1ccccc1)NS2(=O)=O [BENZTHIAZIDE] | Compound NOT metabolized
CC(=O)O[C@]1(C(C)=O)CC[C@H]2[C@@H]3C=C(Cl)C4=CC(=O)[C@@H]5C[C@@H]5[C@]4(C)[C@H]3CC[C@@]21C [CYPROTERONE ACETATE] | Compound metabolized
OC(Cn1cncn1)(Cn1cncn1)c1ccc(F)cc1F | Compound metabolized
O=C1[C@H](CC[C@H](O)c2ccc(F)cc2)[C@@H](c2ccc(O)cc2)N1c1ccc(F)cc1 | Compound metabolized
COc1ccccc1N1CCN(CC(O)COc2cccc3ccccc23)CC1 (stereo not drawn) | Compound NOT metabolized
CCCC1O[C@@H]2C[C@H]3[C@@H]4CCC5=CC(=O)C=C[C@]5(C)[C@H]4[C@@H](O)C[C@]3(C)[C@]2(C(=O)CO)O1 (stereo partly drawn) [BUDESONIDE] | Compound metabolized
CC(C(=O)O)c1ccc2c(c1)Cc1cccnc1O2 (stereo not drawn) | Compound metabolized
C[C@@H]1CC[C@H]2[C@@H](C)C(=O)O[C@@H]3O[C@@]4(C)CC[C@@H]1[C@]32OO4 | Compound metabolized

----------
- TEST NAME: The drug is tested on Z-020 corresponding to rabbit gut metagenome with ENA study accession number: PRJEB37062 and ENA sample accession number: ERS12561819 for biotransformation under anaerobic condition. The drug concentrations were measured over 9 timepoints collected between 0 and 24 hours of incubation by liquid-chromatography-coupled mass spectrometry (LC–MS)
- RECORDED CONDITIONS: 2 µM
MEASURE NAME: Bacterial Biotransformation

COMPOUND | MEASURE NAME | ASSAY RESULT
COc1ccc2c3c1O[C@H]1C[C@@H](O)C=C[C@@]31CCN(C)C2 | Bacterial Biotransformation | Compound NOT metabolized
CCN(CC)CCNC(C(=O)OCCC(C)C)c1ccccc1.Cl.Cl (centres undefined) | Bacterial Biotransformation | Compound metabolized
CC(=O)OCC(=O)[C@@]12N=C(C)O[C@@H]1C[C@H]1[C@@H]3CCC4=CC(=O)C=C[C@]4(C)[C@H]3[C@@H](O)C[C@@]12C | Bacterial Biotransformation | Compound metabolized
C[C@@H]1CC[C@H]2[C@@H](C)C(=O)O[C@@H]3O[C@@]4(C)CC[C@@H]1[C@]32OO4 | Bacterial Biotransformation | Compound metabolized
C#C[C@]1(O)CC[C@H]2[C@@H]3CCC4=CC(=O)CC[C@@H]4[C@H]3CC[C@@]21CC | Bacterial Biotransformation | Compound metabolized
c1ccc([C@H]2CN3CCSC3=N2)cc1 | Bacterial Biotransformation | Compound NOT metabolized
O=C(O)COCCN1CCN(C(c2ccccc2)c2ccc(Cl)cc2)CC1 (centres undefined) | Bacterial Biotransformation | Compound NOT metabolized
O=C(O)CCc1nc(-c2ccccc2)c(-c2ccccc2)o1 | Bacterial Biotransformation | Compound metabolized
Cc1cc2c(cc1S(N)(=O)=O)S(=O)(=O)CCC2 | Bacterial Biotransformation | Compound NOT metabolized

----------
- RECORDED CONDITIONS: human gut metagenome, 24 h, 2 µM
MEASURE NAME: Bacterial Biotransformation

COMPOUND | ASSAY RESULT
CCN(CC)CC#CCOC(=O)C(O)(c1ccccc1)C1CCCCC1.Cl (stereo not drawn) [OXYBUTYNIN CHLORIDE] | Compound metabolized
CCCc1nc2c(C)cc(-c3nc4ccccc4n3C)cc2n1Cc1ccc(-c2ccccc2C(=O)O)cc1 | Compound NOT metabolized
CS(=O)(=O)O.OC(CCN1CCCCC1)(c1ccccc1)c1ccccc1 [PRIDINOL METHANESULFONATE] | Compound NOT metabolized
COc1c(C)c2c(c(O)c1C/C=C(\C)CCC(=O)OCCN1CCOCC1)C(=O)OC2 [MYCOPHENOLATE MOFETIL] | Compound metabolized
COc1ccccc1OCC(O)CN1CCN(CC(=O)Nc2c(C)cccc2C)CC1 (stereo not drawn) | Compound NOT metabolized
CC(C)(C(=O)O)c1ccc(C(O)CCCN2CCC(C(O)(c3ccccc3)c3ccccc3)CC2)cc1 (stereo not drawn) [FEXOFENADINE] | Compound NOT metabolized
CNS(=O)(=O)Cc1ccc2[nH]cc(CCN(C)C)c2c1.O=C(O)CCC(=O)O [SUMATRIPTAN SUCCINATE] | Compound NOT metabolized
O=c1[nH]c2ccccc2n1C1CCN(CCCC(c2ccc(F)cc2)c2ccc(F)cc2)CC1 [PIMOZIDE] | Compound metabolized
Cc1ccc(S(=O)(=O)NC(=O)NN2CC3CCCC3C2)cc1 (stereo not drawn) [GLICLAZIDE] | Compound metabolized
Cc1ccccc1N1C(=O)c2cc(S(N)(=O)=O)c(Cl)cc2NC1C (stereo not drawn) | Compound NOT metabolized
CC(C)OC(=O)C(C)(C)Oc1ccc(C(=O)c2ccc(Cl)cc2)cc1 [FENOFIBRATE] | Compound NOT metabolized
O=C(O)COCCN1CCN(C(c2ccccc2)c2ccc(Cl)cc2)CC1 (stereo not drawn) | Compound metabolized
CC(C)NCC(O)COc1ccc(CCOCC2CC2)cc1 (stereo not drawn) | Compound NOT metabolized
CCN(CC)CCOC(=O)C(Cc1cccc2ccccc12)CC1CCCO1.O=C(O)C(=O)O (stereo not drawn) [NAFRONYL OXALATE] | Compound NOT metabolized
OC(CCN1CCCCC1)(c1ccccc1)C1CC2C=CC1C2 (stereo not drawn) | Compound NOT metabolized
COc1ccc2c3c1O[C@H]1C[C@@H](O)C=C[C@@]31CCN(C)C2 | Compound NOT metabolized
COc1ccccc1OCC(O)COC(N)=O (stereo not drawn) | Compound NOT metabolized
C#C[C@]1(O)CC[C@H]2[C@@H]3CCC4=CC(=O)CC[C@@H]4[C@H]3CC[C@@]21CC | Compound metabolized

----------
- TEST NAME: The drug is tested on Z-030 corresponding to mouse gut metagenome with ENA study accession number: PRJEB37062 and ENA sample accession number: ERS12561829 for biotransformation under anaerobic condition. The drug concentrations were measured over 9 timepoints collected between 0 and 24 hours of incubation by liquid-chromatography-coupled mass spectrometry (LC–MS)
- RECORDED CONDITIONS: 2 µM

COMPOUND | Bacterial Biotransformation
CCCc1nc(C(C)(C)O)c(C(=O)OCc2oc(=O)oc2C)n1Cc1ccc(-c2ccccc2-c2nnn[nH]2)cc1 | Compound NOT metabolized
COc1c(C)c2c(c(O)c1C/C=C(\C)CCC(=O)OCCN1CCOCC1)C(=O)OC2 [MYCOPHENOLATE MOFETIL] | Compound NOT metabolized
CC(C)c1c(C(=O)Nc2ccccc2)c(-c2ccccc2)c(-c2ccc(F)cc2)n1CC[C@@H](O)C[C@@H](O)CC(=O)O | Compound NOT metabolized
CO[C@]12C[C@@H](COC(=O)c3cncc(Br)c3)CN(C)[C@@H]1Cc1cn(C)c3cccc2c13 | Compound NOT metabolized
O=C(O)CCc1nc(-c2ccccc2)c(-c2ccccc2)o1 | Compound NOT metabolized
CCN1CCCC1CNC(=O)c1cc(S(N)(=O)=O)ccc1OC (stereo not given) [SULPIRIDE] | Compound NOT metabolized
c1ccc([C@H]2CN3CCSC3=N2)cc1 | Compound NOT metabolized
CCC(COC(=O)c1cc(OC)c(OC)c(OC)c1)(c1ccccc1)N(C)C.O=C(O)/C=C\C(=O)O (stereo not given) | Compound NOT metabolized
CN1CC(=O)N2[C@H](c3ccc4c(c3)OCO4)c3[nH]c4ccccc4c3C[C@@H]2C1=O | Compound NOT metabolized
CC(CN1c2ccccc2Sc2ccccc21)N(C)C (stereo not given) | Compound NOT metabolized
COc1ccccc1OCC(O)CN1CCN(CC(=O)Nc2c(C)cccc2C)CC1 (stereo not given) | Compound NOT metabolized
CNC(=C[N+](=O)[O-])NCCSCc1csc(CN(C)C)n1 | Compound metabolized
CC(C)(Oc1ccc(CCNC(=O)c2ccc(Cl)cc2)cc1)C(=O)O [BEZAFIBRATE] | Compound NOT metabolized
COc1ccccc1OCC(O)COC(N)=O (stereo not given) | Compound NOT metabolized
Br.CN(C)CCCC1(c2ccc(F)cc2)OCc2cc(C#N)ccc21 (stereo not given) [CITALOPRAM HYDROBROMIDE] | Compound NOT metabolized
C=CCN1CC[C@]23c4c5ccc(O)c4O[C@H]2C(=O)CC[C@@]3(O)[C@H]1C5 | Compound NOT metabolized
CCCCCCOC(=O)/N=C(/N)c1ccc(NCc2nc3cc(C(=O)N(CCC(=O)OCC)c4ccccn4)ccc3n2C)cc1.CS(=O)(=O)O [DABIGATRAN ETEXILATE MESYLATE] | Compound NOT metabolized
Cc1ccc(S(=O)(=O)NC(=O)NN2CC3CCCC3C2)cc1 (stereo not given) [GLICLAZIDE] | Compound NOT metabolized
COc1cc2c(c(OC)c1OC)-c1ccc(OC)c(=O)cc1[C@@H](NC(C)=O)CC2 | Compound NOT metabolized
CC(C(=O)O)c1ccc2c(c1)Cc1cccnc1O2 (stereo not given) | Compound metabolized
C[C@@H]1CC[C@H]2[C@@H](C)C(=O)O[C@@H]3O[C@@]4(C)CC[C@@H]1[C@]32OO4 | Compound metabolized
CNC(=C[N+](=O)[O-])NCCSCc1ccc(CN(C)C)o1 | Compound NOT metabolized
COC1=CC(=O)C[C@@H](C)[C@]12Oc1c(Cl)c(OC)cc(OC)c1C2=O | Compound NOT metabolized
COc1ccc2[nH]c([S+]([O-])Cc3ncc(C)c(OC)c3C)nc2c1 (stereo not given) | Compound metabolized
CCN(CC)CCNC(C(=O)OCCC(C)C)c1ccccc1.Cl.Cl (stereo not given) | Compound NOT metabolized
O=C(NCc1ccccc1)OCCO [BURAMATE] | Compound NOT metabolized
CS(=O)(=O)O.OC(CCN1CCCCC1)(c1ccccc1)c1ccccc1 [PRIDINOL METHANESULFONATE] | Compound NOT metabolized
O=c1[nH]c2ccccc2n1CCCN1CCC(n2c(=O)[nH]c3cc(Cl)ccc32)CC1 | Compound NOT metabolized
CC(=O)OCC(=O)[C@@]12N=C(C)O[C@@H]1C[C@H]1[C@@H]3CCC4=CC(=O)C=C[C@]4(C)[C@H]3[C@@H](O)C[C@@]12C | Compound metabolized
O=C(CCCN1CCC(O)(c2ccc(Cl)cc2)CC1)c1ccc(F)cc1 | Compound NOT metabolized
Cc1cc2c(cc1S(N)(=O)=O)S(=O)(=O)CCC2 | Compound NOT metabolized
CN1CCC(=C2c3ccccc3CCc3cccnc32)CC1.O=C(O)/C=C\C(=O)O.O=C(O)/C=C\C(=O)O [AZATADINE MALEATE] | Compound NOT metabolized
Cc1ccccc1N1C(=O)c2cc(S(N)(=O)=O)c(Cl)cc2NC1C (stereo not given) | Compound NOT metabolized
Cc1cn([C@H]2C[C@H](N=[N+]=[N-])[C@@H](CO)O2)c(=O)[nH]c1=O | Compound metabolized
CC(C)NCC(O)COc1ccc(CCOCC2CC2)cc1 (stereo not given) | Compound NOT metabolized
